Where do these numbers come from? They come from ChEMBL document CHEMBL3784971.

Measured MIC values are reported for all entries that follow.
System: Candida albicans
Test: Antimicrobial activity against Candida albicans MTCC 227 assessed as growth inhibition after 24 hrs by agar well diffusion method
Type: functional
Settings: MTCC 227, 24 h

{"Compound": "Clc1ccc(COC(Cn2ccnc2)c2ccc(Cl)cc2Cl)c(Cl)c1 (configuration not stated)", "MIC": "7.8 µg/mL"}
{"Compound": "CCCCCCCCCCCC[N+](C)(C)CCCCCCCCCCC(=O)OC.[Cl-]", "MIC": "31.2 µg/mL"}
{"Compound": "CCCCCC[N+](C)(CCCCCCCCCCC(=O)OC)CCCCCCCCCCC(=O)OC.[Cl-]", "MIC": "15.6 µg/mL"}
{"Compound": "CCCCCC[N+](C)(C)CCCCCCCCCCC(=O)OC.[Cl-]", "MIC": "31.2 µg/mL"}
{"Compound": "COC(=O)CCCCCCCCCC[N+](C)(C1CCCCC1)C1CCCCC1.[Cl-]", "MIC": "15.6 µg/mL"}
{"Compound": "CCCCCCNCCCCCCCCCCC(=O)OC", "MIC": "31.2 µg/mL"}
{"Compound": "CCCCCCCC[N+](C)(CCCCCCCC)CCCCCCCCCCC(=O)OC.[Cl-]", "MIC": "15.6 µg/mL"}

###

Tested on: Candida parapsilosis
Test: Fungicidal activity against Candida parapsilosis MTCC 1744 after 24 hrs by serial dilution method
Assay type: functional
Settings: Lodderomyces parapsilosis, MTCC 1744, 24 h
Parameter MFC: see the listing below.
Test readout: MFC (µg/mL)

{"Molecule": "Clc1ccc(COC(Cn2ccnc2)c2ccc(Cl)cc2Cl)c(Cl)c1 (configuration not stated)", "Test readout": "MFC", "Observed measurement": 7.8}
{"Molecule": "CCCCCC[N+](C)(C)CCCCCCCCCCC(=O)OC.[Cl-]", "Test readout": "MFC", "Observed measurement": 31.2}
{"Molecule": "CCCCCCNCCCCCCCCCCC(=O)OC", "Test readout": "MFC", "Observed measurement": 62.5}
{"Molecule": "COC(=O)CCCCCCCCCC[N+](C)(C1CCCCC1)C1CCCCC1.[Cl-]", "Test readout": "MFC", "Observed measurement": 62.5}
{"Molecule": "CCCCCCCC[N+](C)(CCCCCCCC)CCCCCCCCCCC(=O)OC.[Cl-]", "Test readout": "MFC", "Observed measurement": 31.2}
{"Molecule": "CCCCCCCCCCCC[N+](C)(C)CCCCCCCCCCC(=O)OC.[Cl-]", "Test readout": "MFC", "Observed measurement": 62.5}
{"Molecule": "CCCCCC[N+](C)(CCCCCCCCCCC(=O)OC)CCCCCCCCCCC(=O)OC.[Cl-]", "Test readout": "MFC", "Observed measurement": 31.2}

###

System: Candida albicans
Test: Fungicidal activity against Candida albicans MTCC 7315 after 24 hrs by serial dilution method
Type: functional
Conditions: MTCC 7315, 24 h
A collection of molecules and their measured MFC
Test readout: MFC (µg/mL)

{"Molecule": "COC(=O)CCCCCCCCCC[N+](C)(C1CCCCC1)C1CCCCC1.[Cl-]", "Tested system": "Candida albicans", "Observed measurement": 31.2}
{"Molecule": "CCCCCCCC[N+](C)(CCCCCCCC)CCCCCCCCCCC(=O)OC.[Cl-]", "Tested system": "Candida albicans", "Observed measurement": 15.6}
{"Molecule": "CCCCCCCCCCCC[N+](C)(C)CCCCCCCCCCC(=O)OC.[Cl-]", "Tested system": "Candida albicans", "Observed measurement": 31.2}
{"Molecule": "Clc1ccc(COC(Cn2ccnc2)c2ccc(Cl)cc2Cl)c(Cl)c1 (configuration not stated)", "Tested system": "Candida albicans", "Observed measurement": 7.8}
{"Molecule": "CCCCCCNCCCCCCCCCCC(=O)OC", "Tested system": "Candida albicans", "Observed measurement": 62.5}
{"Molecule": "CCCCCC[N+](C)(C)CCCCCCCCCCC(=O)OC.[Cl-]", "Tested system": "Candida albicans", "Observed measurement": 15.6}
{"Molecule": "CCCCCC[N+](C)(CCCCCCCCCCC(=O)OC)CCCCCCCCCCC(=O)OC.[Cl-]", "Tested system": "Candida albicans", "Observed measurement": 31.2}
